Recorded values, source patent US20150044231A1.

Target: T1, human C5a receptor (human, UniProt P21730 1-350)
T1 construct: In the SPA: receptor-carrying membrane fragments of RBL-hC5aR cells; also called hC5aR; C5aRI
T1 sequence: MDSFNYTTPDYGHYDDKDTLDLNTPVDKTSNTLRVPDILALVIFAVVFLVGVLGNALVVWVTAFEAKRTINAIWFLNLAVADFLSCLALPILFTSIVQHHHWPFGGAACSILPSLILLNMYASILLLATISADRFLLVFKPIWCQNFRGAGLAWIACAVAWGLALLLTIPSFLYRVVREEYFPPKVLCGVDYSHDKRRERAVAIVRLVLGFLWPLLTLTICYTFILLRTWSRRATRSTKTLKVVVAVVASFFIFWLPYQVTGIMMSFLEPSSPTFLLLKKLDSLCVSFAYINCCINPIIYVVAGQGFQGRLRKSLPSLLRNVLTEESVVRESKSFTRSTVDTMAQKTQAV
Assay: SPA, unlabelled hC5a displacing 125I-hC5a from RBL-hC5aR membranes
attribute_measured: pIC50
Just so you know, pIC50 here is -log10 of the concentration in molar units; reply with that number alone.

Input: What does the record list as pIC50 for human C5a (ligand, UniProt P01031 678-751, looked up, C5a is only a fragment of it; also called hC5a) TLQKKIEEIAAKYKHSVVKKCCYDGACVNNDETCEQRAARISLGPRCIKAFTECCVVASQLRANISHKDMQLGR ?
Output: 8.39
